# tested.on: T1, huIL-17RA-FLAG-polyHis (human, UniProt Q96F46 33-320)
# T1 construct: also called IL-17RA-FLAG-pHis; wild-type IL-17RA
# assay.overview: binning; IL-17RA held by bead mAb O
Parameter: normalized MFI. Scope: all listed entries.

{"binder": "AMH6/AML6 (antibody, IgG2, V domains shown, human mAb from IgG2 XenoMouse mice; also called AM-6; antibody E) VH: QVQLVQSGAEVKKPGASVKVSCKASGYTLTRYGISWVRQAPGQGLEWMGWISAYNGNTNYAQKLQGRVTMTTDTSTSTAYMELRSLRSDDTAVYYCARRDYDILTGYYNGFDPWGQGTLVTVSS VL: DIQMTQSPSSLSASVGDRVTITCRASQGIRNDLGWYQQKPGKAPKRLIYAASSLQSGVPSRFSGSGSGTEFTLTISSLQPEDFATYYCLQHKSYPLTFGGGTKVEIK", "normalized MFI": 3310}
{"binder": "AMH16/AML16 (antibody, IgG2, V domains shown, human mAb from IgG2 XenoMouse mice; also called AM-16; antibody O) VH: QVQLVQSGAEVKKPGASVKVSCKASGYTFTSYGISWVRQAPGQGLEWMGWISAYNGNTKYAQKLQGRVTMTTDTSTSTVYMELRSLRSDDTAVYYCARKQLVFDYWGQGTLVTVSS VL: EIVMTQSPATLSVSPGERATLSCRASQSISTSLAWYQQKPGQAPRLLIYGTSTRATGIPARFSGSGSGTEFTLTISSLQSEDFAVYFCQQYDIWPLTFGGGTKVEIK", "normalized MFI": 139}
